Provide the recorded Second Scan Tm for the entries that follow.
- TEST_PROTOCOL: Thermal stability by differential scanning calorimetry
- Format: physicochemical
- ASSAY_SETUP: cysteine-NEM conjugates, second identical scan
Write the answer as a number in °C, unit excluded.

Complete the entry with Second Scan Tm for V41C (protein, EGFR binding FN3 domain; EGFR-binding FN3 domain) chain 1: MLPAPKNLVVSEVTEDSARLSWDDPWAFYESFLIQYQESEKCGEAIVLTVPGSERSYDLTGLKPGTEYTVSIYGVHNVYKDTNMRGLPLSAIFTT chain 2: LPAPKNLVVSEVTEDSARLSWDDPWAFYESFLIQYQESEKCGEAIVLTVPGSERSYDLTGLKPGTEYTVSIYGVHNVYKDTNMRGLPLSAIFTT
71

Complete the entry with Second Scan Tm for I91C (protein) LPAPKNLVVSEVTEDSARLSWDDPWAFYESFLIQYQESEKVGEAIVLTVPGSERSYDLTGLKPGTEYTVSIYGVHNVYKDTNMRGLPLSACFTT
69
